tested.system: human cytochrome P450 3A4 (Homo sapiens, UniProt P08684)
Sequence (P08684 whole entry): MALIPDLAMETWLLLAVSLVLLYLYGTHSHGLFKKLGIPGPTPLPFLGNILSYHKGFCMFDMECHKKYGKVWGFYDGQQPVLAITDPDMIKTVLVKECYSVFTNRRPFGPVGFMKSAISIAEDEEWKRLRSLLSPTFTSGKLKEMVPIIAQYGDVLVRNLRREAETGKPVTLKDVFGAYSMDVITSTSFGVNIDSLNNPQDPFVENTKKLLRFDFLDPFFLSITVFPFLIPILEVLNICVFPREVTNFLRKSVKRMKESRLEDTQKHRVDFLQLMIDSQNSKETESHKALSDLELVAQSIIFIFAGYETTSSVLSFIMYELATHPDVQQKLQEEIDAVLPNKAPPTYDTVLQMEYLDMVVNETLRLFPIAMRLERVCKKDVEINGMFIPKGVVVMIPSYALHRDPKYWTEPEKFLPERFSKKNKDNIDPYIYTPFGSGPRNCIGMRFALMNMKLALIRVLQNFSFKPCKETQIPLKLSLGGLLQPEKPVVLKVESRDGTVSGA
measured.property: pIC50
Answers are plain numbers, as −log10 of the molar value.

Please report the measured pIC50 for "CCC1(CC)C[C@@H](CCN2CCN(c3ccc(O)cc3)CC2)OC1=O"
5.02
